molecular target: Matrix protein 2 (Influenza A virus (A/Udorn/307/1972(H3N2)), UniProt P0DOF8)
Sequence (P0DOF8 whole entry): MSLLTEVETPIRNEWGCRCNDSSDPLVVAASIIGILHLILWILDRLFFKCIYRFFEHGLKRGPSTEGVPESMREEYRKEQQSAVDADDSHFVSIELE
Listed next: entries and their corresponding IC50.

Illustrative cases are given below, each with its answer.
C1CC2C3CNCC3C1C1CC21 (configuration not stated)    3380 nM
N=C(N)N1CC2C3C=CC(C4CC34)C2C1 (configuration not stated)    1500 nM
N=C(N)N1CC2C3C=CC(C4C=CC43)C2C1 (configuration not stated)    4930 nM
C1=CC2C3CNCC3C1C1CC21 (configuration not stated)    2920 nM
N=C(N)N1CC2C3CCC(C4CC34)C2C1 (configuration not stated)    1640 nM

What the record says about C1=CC2C1C1C=CC2C2CNCC12 (configuration not stated) : IC50 is 5540 nM

Noted for C1CC2C1C1CCC2C2CNCC12 (configuration not stated) : its IC50 reads 1240 nM

----------
experiment: Cytotoxicity against MDCK cells assessed as alteration in cell morphology after 72 hrs; format: cell-based, Canis lupus familiaris; conditions: dog
Measure name: MCC at 72 h (µM)
Report the value in µM with no unit label.

Example results:
N=C(N)N1CC2C3C=CC(C4C=CC43)C2C1 (configuration not stated)    20
C1CC(N2CC3C4CCC(C5CC45)C3C2)CCN1 (configuration not stated)    20
C1=CC2C3CNCC3C1C1CC21 (configuration not stated)    100
CC12CC34CNCC35CC1(C)C(C)(C5)C2(C)C4 (configuration not stated)    100
N=C(N)N1CC2C3CCC(C4CCC43)C2C1 (configuration not stated)    4
C1=CC2C1C1C=CC2C2CNCC12 (configuration not stated)    15

Please examine the following record next.
// C1CC2C3CNCC3C1C1CC21 (configuration not stated) : MCC at 72 h value = 100

Origin of measurements: ChEMBL document CHEMBL3286248
